I'd appreciate it if you could supply MIC values for the items below.
tested on: Salmonella typhimurium; assay: Antibacterial activity against Salmonella typhimurium MTCC 1251 after 24 hrs; type: functional, Salmonella enterica subsp. enterica serovar Typhimurium; conditions: Salmonella enterica, MTCC 1251, 24 h
# output: bare number, implied unit µg/mL

Inquiry: Determine from records and report MIC for `CN1C(=O)[C@@]2(c3cc(Br)ccc31)N(C)C[C@](C#N)(C(=O)c1c[nH]c3ccccc13)[C@]21C(=O)Nc2ccccc21`
Reply text: 500

Inquiry: Determine from records and report MIC for `CN[C@@H]1[C@H](O[C@H]2[C@H](O[C@H]3[C@H](O)[C@@H](O)[C@H](N=C(N)N)[C@@H](O)[C@@H]3N=C(N)N)O[C@@H](C)[C@]2(O)C=O)O[C@@H](CO)[C@H](O)[C@H]1O`
Reply text: 30

Inquiry: Determine from records and report MIC for `CN1C(=O)[C@@]2(c3cc(Cl)ccc31)N(C)C[C@](C#N)(C(=O)c1c[nH]c3ccccc13)[C@]21C(=O)Nc2ccccc21`
Reply text: 500

Inquiry: Determine from records and report MIC for `CCCCCCN1C(=O)[C@@]2(c3ccccc31)N(C)C[C@](C#N)(C(=O)c1c[nH]c3ccccc13)[C@]21C(=O)Nc2ccccc21`
Reply text: 500

Inquiry: Determine from records and report MIC for `CCCCN1C(=O)[C@@]2(c3ccccc31)N(C)C[C@](C#N)(C(=O)c1c[nH]c3ccccc13)[C@]21C(=O)Nc2ccccc21`
Reply text: 500

Inquiry: Determine from records and report MIC for `Cc1ccc2c(c1)[C@]1(C(=O)N2C)N(C)C[C@](C#N)(C(=O)c2c[nH]c3ccccc23)[C@]12C(=O)Nc1ccccc12`
Reply text: 500

Inquiry: Determine from records and report MIC for `CN1C[C@](C#N)(C(=O)c2c[nH]c3ccccc23)[C@]2(C(=O)Nc3ccccc32)[C@@]12C(=O)Nc1ccc(Cl)cc12`
Reply text: 500

Inquiry: Determine from records and report MIC for `CCN1C(=O)[C@@]2(c3ccccc31)N(C)C[C@](C#N)(C(=O)c1c[nH]c3ccccc13)[C@]21C(=O)Nc2ccccc21`
Reply text: 500

Inquiry: Determine from records and report MIC for `CN1C(=O)[C@@]2(c3ccccc31)N(C)C[C@](C#N)(C(=O)c1c[nH]c3ccccc13)[C@]21C(=O)Nc2ccccc21`
Reply text: 500

Inquiry: Determine from records and report MIC for `CN1C[C@](C#N)(C(=O)c2c[nH]c3ccccc23)[C@]2(C(=O)Nc3ccccc32)[C@@]12C(=O)Nc1ccc(I)cc12`
Reply text: 500

Inquiry: Determine from records and report MIC for `C#CCN1C(=O)[C@@]2(c3ccccc31)N(C)C[C@](C#N)(C(=O)c1c[nH]c3ccccc13)[C@]21C(=O)Nc2ccccc21`
Reply text: 500

Inquiry: Determine from records and report MIC for `CN1C[C@](C#N)(C(=O)c2c[nH]c3ccccc23)[C@]2(C(=O)Nc3ccccc32)[C@@]12C(=O)Nc1ccc(Br)cc12`
Reply text: 125

* * *

system: Klebsiella aerogenes; assay: Antibacterial activity against Enterobacter aerogenes MTCC 111 after 24 hrs; type: functional; details: MTCC 111, 24 h
I'd appreciate it if you could supply MIC values for the items below.
# output: bare number, implied unit µg/mL

Inquiry: Determine from records and report MIC for `CN1C(=O)[C@@]2(c3cc(Br)ccc31)N(C)C[C@](C#N)(C(=O)c1c[nH]c3ccccc13)[C@]21C(=O)Nc2ccccc21`
Reply text: 125

Inquiry: Determine from records and report MIC for `Cc1ccc2c(c1)[C@]1(C(=O)N2C)N(C)C[C@](C#N)(C(=O)c2c[nH]c3ccccc23)[C@]12C(=O)Nc1ccccc12`
Reply text: 125

Inquiry: Determine from records and report MIC for `CCN1C(=O)[C@@]2(c3ccccc31)N(C)C[C@](C#N)(C(=O)c1c[nH]c3ccccc13)[C@]21C(=O)Nc2ccccc21`
Reply text: 500

Inquiry: Determine from records and report MIC for `CN1C(=O)[C@@]2(c3cc(I)ccc31)N(C)C[C@](C#N)(C(=O)c1c[nH]c3ccccc13)[C@]21C(=O)Nc2ccccc21`
Reply text: 125
